pIC50: −log10 of the molar value.
Measured pIC50 on Cyclin-dependent kinase 2 (Homo sapiens, UniProt P24941) follows.
Parameter Measured: pIC50

- Record Smiles: "O=C1c2ccccc2C(=O)C1c1ccccn1"
  Target Or System: "Cyclin-dependent kinase 2 (Homo sapiens, UniProt P24941)"
  Result Number: 4.34
- Record Smiles: "O=c1[nH]c(O)ccc1N=Nc1ccc(S(=O)(=O)O)cc1"
  Target Or System: "Cyclin-dependent kinase 2 (Homo sapiens, UniProt P24941)"
  Result Number: 4.35
